Tested on: M. mycetomatis genome strain MM55
measurement_notes: CLSI M38-A2 based in vitro susceptibility screening (XTT or resazurin), growth at fixed concentration
Format: cell-based, Madurella mycetomatis
study_conditions: Madurella mycetomatis, 100 uM, replicate 1; read-out: Percentage survival at 100um, 100 uM A (first replicate column)
observation_type: activity at 100 µM (%)
Give the value, in units of %, as a plain number.

I am curious: what activity at 100 µM value has been reported for `COc1cc2c(O)c3c(c(-c4ccc5c(c4)OCO5)c2cc1OC)C(=O)OC3` ?
93.7

I am curious: what activity at 100 µM value has been reported for `O=c1nc(N2CCN(CC3CCCCC3)CC2)sc2c([N+](=O)[O-])cc(C(F)(F)F)cc12` ?
87.8

I am curious: what activity at 100 µM value has been reported for `CCCCCCCCCN1C[C@@H](O)[C@H](O)[C@@H](O)[C@@H]1CO` ?
91.7

I am curious: what activity at 100 µM value has been reported for Oc1c(C(Nc2ccccn2)c2ccccc2)ccc2cccnc12 (stereo not drawn) ?
9.08

I am curious: what activity at 100 µM value has been reported for `Nc1cc(-c2nc3ccccc3[nH]2)n[nH]c1=O` ?
105

I am curious: what activity at 100 µM value has been reported for `NC(=O)c1[nH]c2ccc(S(N)(=O)=O)cc2c1-c1ccccc1` ?
77.5

I am curious: what activity at 100 µM value has been reported for O=C(c1ccc(F)cc1)N1CCN2C(=O)c3ccccc3C12c1ccccc1 (stereo not drawn) ?
85.4

I am curious: what activity at 100 µM value has been reported for `Cc1cccc(C)c1C(=O)Nc1nc(-c2ccccn2)cc2ccccc12` ?
76.1

I am curious: what activity at 100 µM value has been reported for O=P(O)(O)C(CCCc1cccc(Oc2ccccc2)c1)S(=O)(=O)O (stereo not drawn) ?
79.5

I am curious: what activity at 100 µM value has been reported for `N=C(N)NCCCCC(=O)Nc1cc(C(F)(F)F)cc(NC(=O)c2cc(C(=O)Nc3cc(C(F)(F)F)cc(NC(=O)CCCCNC(=N)N)c3O[C@@H]3CCNC3)ncn2)c1O[C@@H]1CCNC1` ?
14.1

I am curious: what activity at 100 µM value has been reported for `COc1ccc2nc(-c3ccccc3)cc(O)c2c1` ?
74.5

I am curious: what activity at 100 µM value has been reported for `O=C(/C=C\n1cnc(-c2cc(C(F)(F)F)cc(C(F)(F)F)c2)n1)NNc1ccccn1` ?
119

I am curious: what activity at 100 µM value has been reported for `O=C1C=C(c2ccccc2)S(=O)(=O)c2ccccc21` ?
63.3

I am curious: what activity at 100 µM value has been reported for `NC(=O)c1cnccn1` ?
53.7

I am curious: what activity at 100 µM value has been reported for `CC(C)Oc1ccc(-c2nc(-c3cccc4c3CC[C@@H]4NCCO)no2)cc1C#N` ?
-1.25

I am curious: what activity at 100 µM value has been reported for C[C@H](NC(CC(=O)c1ccccc1C(F)(F)F)C(=O)O)c1ccccc1 (stereo partly drawn) ?
91.1

I am curious: what activity at 100 µM value has been reported for `CCC(CC)[C@H](NC(C)=O)[C@@H]1[C@H](O)[C@@H](C(=O)O)C[C@H]1NC(=N)N` ?
95.6

I am curious: what activity at 100 µM value has been reported for `CCNC(=O)Nc1cn2c(-c3ncc(CC)cn3)cc(-c3cccnc3)cc2n1` ?
77.2
